- assayed target: T1, monkey CD3ε/δ-His (monkey, UniProt Q95LI5 22-117; Q95LI8 22-105)
- T1 construct: Bought recombinant heterodimer with His tag
- T1 sequence (Q95LI5 22-117, stated change not applied, form in doubt, chain 1 of 2): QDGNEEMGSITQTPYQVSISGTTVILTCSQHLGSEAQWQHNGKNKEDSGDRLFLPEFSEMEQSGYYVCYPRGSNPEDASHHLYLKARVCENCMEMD
- T1 sequence (Q95LI8 22-105, stated change not applied, form in doubt, chain 2 of 2): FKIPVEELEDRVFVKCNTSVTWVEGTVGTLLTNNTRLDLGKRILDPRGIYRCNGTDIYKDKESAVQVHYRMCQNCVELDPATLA
- test protocol: ELISA, coated antigen
Label fulfilled when EC50 is strictly below 0.02 nM; otherwise label not fulfilled.

Answered examples (6):
- binder: "5-40.21-H3-L1 humanized antibody (antibody, human IgG1, kappa, V domains shown) VH: EVQLVQSGAEVKKPGASVKVSCKASGYTFTSYWMHWVRQAPGQGLEWMGNTYPGSGSTNYDEKFKSRVTITVDSSASTAYMELSSLRSEDTAVYYCTRDRYGVYYFDYWGQGTTVTVSS VL: DIVMTQSPDSLAVSLGERATINCKSSQSLLNSRTRKNYLAWYQQKPGQSPKLLIYWASTRESGVPDRFSGSGSGTDFTLTISSLQAEDVAVYYCTQSYNLRTFGGGTKVEIKR"
  qualitative label: "fulfilled"
- binder: "40G5c-hIgG1 (antibody, V domains shown) VH: EVQLVQSGAEVKKPGASVKVSCKASGYTFTNYYIHWVRQAPGQGLEWIGWIYPGDGNTKYNEKFKGRATLTADTSTSTAYLELSSLRSEDTAVYYCARDSYSNYYFDYWGQGTLVTVSS VL: DIVMTQSPDSLAVSLGERATINCKSSQSLLNSRTRKNYLAWYQQKPGQPPKLLIYWASTRESGVPDRFSGSGSGTDFTLTISSLQAEDVAVYYCTQSFILRTFGQGTKVEIKR"
  qualitative label: "not fulfilled"
- binder: "5-7.13-H1a-L2 humanized antibody (antibody, human IgG1, kappa, V domains shown) VH: EVQLVQSGAEVKKPGASVKVSCKASGYTFTSYWVHWVRQAPGQRLEWMGNINPSDGVTNYNEKFKSRVTITVDKSASTAYMELSSLRSEDTAVYYCTRDAYGQYYFDNWGQGTTVTVSS VL: DIVMTQTPLSLPVTPGEPASISCKSSQSLLNSRTRKNYLAWYLQKPGQSPQLLIYWASVRDSGVPDRFSGSGSGTDFTLKISRVEAEDVGVYYCIQSYYLRTFGGGTKVEIKR"
  qualitative label: "fulfilled"
- binder: "8-18.1-H1-L2 humanized antibody (antibody, human IgG1, kappa, V domains shown) VH: EVQLVQSGAEVKKPGASVKVSCKASGYTFTMNTMHWVRQAPGQRLEWMGYINPYSGYTKYNQIFKDRVTITADKSASTAYMELSSLRSEDTAVYYCLRGGEGVWGQGTTVTVSS VL: DVVMTQSPLSLPVTLGQPASISCKSSQSLLDSDGKTYLNWLQQRPGQSPRRLIYLVSELGSGVPDRFSGSGSGTDFTLKISRVEAEDVGVYYCWQGTHFPRTFGGGTKVEIKR"
  qualitative label: "fulfilled"
- binder: "7-35.6-H2-L3 humanized antibody (antibody, human IgG1, lambda, V domains shown) VH: EVQLVESGGGLVQPGGSLKLSCAASGFTFNTYAMNWVRQASGKGLEWVGRIRSKINNYATYYGDSVKDRFTISRDDSKNTFYLQMNSLKTEDTAVYYCVIHENYGSISWFAYWGQGTLVTVSS VL: ETVVTQEPSLTVSPGGTVTLTCRSSTGAVTTSNYANWVQQKPGQAFTGLIGGTNNRAPWTPARFSGSLLGGKAALTLSGVQPEDEAEYYCALWYSNHWVFGGGTKLTVLG"
  qualitative label: "not fulfilled"
- binder: "6-44.5-H1-L2 humanized antibody (antibody, human IgG1, kappa, V domains shown) VH: EVQLVQSGAEVKKPGSSVKVSCKASGHTFSSHIMHWVRQAPGQGLEWMGYINPNNDRTEYSEKFKGRVTITADKSTSTAYMELSSLRSEDTAVYYCAGEAYYSNSLYAMDYWGQGTTVTVSS VL: DIVMTQSPDSLAVSLGERATINCKSSQSLFNSRTRKNYLAWYQQKPGQSPKLLIYWASTRESGVPDRFSGSGSGTDFTLTISSLQAEDVAVYYCKQSYYLRTFGGGTKVEIKR"
  qualitative label: "fulfilled"

Now look at this one.
stdin: Does this binder meet the criterion EC50 < 0.02 nM? 1-22.6-1-H2a-L2a humanized antibody (antibody, human IgG1, kappa, V domains shown, also called 1-22.6-H2a-L2a) VH: EVQLVQSGSELKKPGASVKVSCKTSGYTFTSYGMSWVRQAPGQGLEWMGWINTYSGVPTYAQDFKGRFVFSLDTSVSTAYLQISSLKAEDTAVYYCARLKNNPFVWGQGTTVTVSS VL: DIVMTQSPDSLAVSLGERATINCRSSQLILHSSGNTYLEWYQQKPGQSPKLLIYKVSNRFSGVPDRFSGSGSGTDFTLTISSLQAEDVAVYYCFQGSHFPWTFGGGTKVEIKR
stdout: fulfilled
